The reported measurements were obtained from patent US7879876B2.

# TEST TARGET: gelatinase A (MMP-2) (Homo sapiens, UniProt P08253)
# Sequence (P08253 110-660): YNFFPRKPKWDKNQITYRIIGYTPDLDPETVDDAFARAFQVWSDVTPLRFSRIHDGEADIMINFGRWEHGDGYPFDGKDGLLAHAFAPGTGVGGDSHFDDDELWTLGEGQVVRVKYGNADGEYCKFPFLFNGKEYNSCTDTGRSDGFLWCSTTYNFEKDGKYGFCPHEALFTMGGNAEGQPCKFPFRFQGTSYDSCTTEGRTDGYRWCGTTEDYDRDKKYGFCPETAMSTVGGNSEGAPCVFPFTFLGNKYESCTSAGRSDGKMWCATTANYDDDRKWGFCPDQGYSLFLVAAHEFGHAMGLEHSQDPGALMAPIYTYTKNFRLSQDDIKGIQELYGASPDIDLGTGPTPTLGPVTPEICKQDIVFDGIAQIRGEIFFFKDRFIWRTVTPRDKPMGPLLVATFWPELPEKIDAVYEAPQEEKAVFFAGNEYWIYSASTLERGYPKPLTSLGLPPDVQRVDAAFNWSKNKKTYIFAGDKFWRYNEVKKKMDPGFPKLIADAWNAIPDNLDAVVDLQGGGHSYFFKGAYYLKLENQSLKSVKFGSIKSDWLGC
# EXPERIMENT NOTES: MMP-2 enzyme inhibition assay (coumarin-labelled peptide substrate)
# Format: biochemical
# EXPERIMENTAL PARAMETERS: read-out: IC50 MMP2
# Protocol: Compounds of the invention were tested to assess their activities as inhibitors of MMP-1, MMP-2, MMP-9, MMP-14, MMP-12 and TACE. MMP-9 Assay Protocol […] The assay was performed in a total volume of 100 μL per well in 96-well microtitre plates. […] The fluorescence at 405 nm was measured immediately with an SLT Fluostar fluorometer (SL T Labinstruments GmbH, Grödig, Austria) using 320 nm excitation, without stopping the reaction. […]
EXPERIMENTAL ENDPOINT: IC50 (nM)

Illustrative cases are given below, each with its answer.
O=CN(O)C(CS(=O)(=O)N1CCc2ccc(Br)cc2C1)C1CCCC1 (centres unmarked)	42
CCC(CC)C(CS(=O)(=O)N1CCc2cc(Cl)c(Cl)cc2C1)N(O)C=O (centres unmarked)	35
O=CN(O)C(COCc1ccccc1)CS(=O)(=O)N1CCc2ccc(C(F)(F)F)cc2C1 (centres unmarked)	83

I. O=CN(O)[C@H](CS(=O)(=O)N1CCc2ccc(Cl)cc2C1)[C@H]1CCCO1
II. CC(C)c1ccc2c(c1)CCN(S(=O)(=O)CC(C1CCCC1)N(O)C=O)C2 (centres unmarked)
Consider I and II . Which of these has its IC50 at a higher number? When you have decided, please share the label of that item.
II
(II: 63 nM, I: 27 nM)

====

# TEST TARGET: MMP-14 (Homo sapiens, UniProt P50281)
# EXPERIMENT NOTES: MMP-14 enzyme inhibition assay (coumarin-labelled peptide substrate)
# Type: biochemical
# EXPERIMENTAL PARAMETERS: @ 5 μM; read-out: percentage inhibition MMP14
EXPERIMENTAL ENDPOINT: inhibition at 5 µM (%)

Worked examples follow.
CCC(CC)C(CS(=O)(=O)N1CCc2ccc(Br)cc2C1)N(O)C=O (stereo not drawn)	75
CCCCCC(CS(=O)(=O)N1CCc2ccccc2C1)N(O)C=O (stereo not drawn)	67
COc1cc2c(cc1OC)CN(S(=O)(=O)CC([C@H]1COC(C)(C)O1)N(O)C=O)CC2 (stereo partly drawn)	0
O=CN(O)C(CS(=O)(=O)N1CCc2ccc(-c3ccncc3)cc2C1)C1CCCC1 (stereo not drawn)	72
O=CN(O)C(COc1ccccc1)CS(=O)(=O)N1CCc2ccc(Cl)cc2C1 (stereo not drawn)	43
CC(C)(C)CC(CS(=O)(=O)N1CCc2cc(C(F)(F)F)ccc2C1)N(O)C=O (stereo not drawn)	89

a. CC(C)(CS(=O)(=O)N1CCc2ccc(Br)cc2C1)N(O)C=O
b. CC1(C)OC[C@H](C(CS(=O)(=O)N2CCc3ccc(Cl)cc3C2)N(O)C=O)O1 (stereo partly drawn)
c. O=CN(O)[C@@H](CS(=O)(=O)N1CCc2ccc(Cl)cc2C1)[C@H]1CCCO1
Order by inhibition at 5 µM, ascending. Reply with the item labels sorted in the order that was asked for.
c, a, b

====

# TEST TARGET: collagenase (MMP-1) (Homo sapiens)
# Sequence (P03956 100-469): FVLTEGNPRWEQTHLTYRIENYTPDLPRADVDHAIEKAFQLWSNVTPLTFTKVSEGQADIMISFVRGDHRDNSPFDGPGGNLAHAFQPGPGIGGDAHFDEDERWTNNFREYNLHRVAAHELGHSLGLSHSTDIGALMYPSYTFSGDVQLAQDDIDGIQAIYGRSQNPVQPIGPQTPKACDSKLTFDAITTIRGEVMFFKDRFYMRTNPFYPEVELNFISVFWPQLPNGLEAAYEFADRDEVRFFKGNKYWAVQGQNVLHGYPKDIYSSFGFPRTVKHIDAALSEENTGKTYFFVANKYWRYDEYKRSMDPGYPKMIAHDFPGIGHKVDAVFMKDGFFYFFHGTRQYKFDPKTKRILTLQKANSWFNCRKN
# EXPERIMENT NOTES: MMP-1 enzyme inhibition assay (coumarin-labelled peptide substrate)
# Format: biochemical
# EXPERIMENTAL PARAMETERS: @ 5 μM; read-out: percentage inhibition MMP1
EXPERIMENTAL ENDPOINT: inhibition at 5 µM (%)

O=CN(O)C(CS(=O)(=O)N1CCc2ccc(C(F)(F)F)cc2C1)C1CC1 (centres unmarked) [Example 83]	4
CC1(C)OC[C@H](C(CS(=O)(=O)N2Cc3ccccc3C2)N(O)C=O)O1 (some centres unmarked) [Example 16]	74
CC(C)(C)CC(CS(=O)(=O)N1Cc2ccc(F)cc2C1)N(O)C=O (centres unmarked) [Example 26]	92
COc1cc2c(cc1OC)CN(S(=O)(=O)CC([C@H](O)CO)N(O)C=O)CC2 (some centres unmarked) [Example 24]	0
CCC(CC)C(CS(=O)(=O)N1CCc2cc(OC)c(OC)cc2C1)N(O)C=O (centres unmarked) [Example 17]	0
O=CN(O)C(CCc1cccnc1)CS(=O)(=O)N1CCc2ccc(Cl)cc2C1 (centres unmarked) [Example 86]	49
CCC(CC)C(CS(=O)(=O)N1CCc2cc(Cl)c(Cl)cc2C1)N(O)C=O (centres unmarked) [Example 34]	12
COc1ccc(C(CS(=O)(=O)N2CCc3ccccc3C2)N(O)C=O)cn1 (centres unmarked) [Example 13]	16
O=CN(O)C(CS(=O)(=O)N1Cc2ccccc2C1)C1CC1 (centres unmarked) [Example 72]	75
O=CN(O)C(CS(=O)(=O)N1CCc2cc(C(F)(F)F)ccc2C1)C1CC1 (centres unmarked) [Example 74]	44

a. CC1(C)OC[C@H](C(CS(=O)(=O)N2CCc3ccc(Cl)cc3C2)N(O)C=O)O1 (some centres unmarked) [Example 19]
b. COc1cc2c(cc1OC)CN(S(=O)(=O)CC(C1CCCC1)N(O)C=O)CC2 (centres unmarked) [Example 15]
Of the two listed items, a and b , which carries the larger inhibition at 5 µM figure? Mark your answer with the label of the selected entry.
a
(a: 45%, b: 0%)

A. O=CN(O)C(CS(=O)(=O)N1CCc2ccccc2C1)c1cccs1 (centres unmarked) [Example 5]
B. O=CN(O)C(CS(=O)(=O)N1CCc2ccc(-c3ccc(F)cc3)cc2C1)C1CC1 (centres unmarked) [Example 75]
C. O=CN(O)C(COCc1ccccc1)CS(=O)(=O)N1CCc2ccc(Cl)cc2C1 (centres unmarked) [Example 58]
D. O=CN(O)C(CS(=O)(=O)N1CCc2ccc(C(F)(F)F)cc2C1)C1CCCC1 (centres unmarked) [Example 82]
Put these in order: smallest inhibition at 5 µM first, largest last. A ranking is expressed here by listing the labels in the requested order.
B, D, A, C
(B: 0%, D: 10%, A: 32%, C: 68%)

I. COc1cc2c(cc1OC)CN(S(=O)(=O)CC([C@H]1COC(C)(C)O1)N(O)C=O)CC2 (some centres unmarked) [Example 14]
II. O=CN(O)C(CO)CS(=O)(=O)N1CCc2cc(Cl)c(Cl)cc2C1 (centres unmarked) [Example 49]
From the items above, decide which of I and II has the lower inhibition at 5 µM reading. When you have decided, please share the label of that item.
I
(I: 0%, II: 29%)

1. COc1cc2c(cc1OC)CN(S(=O)(=O)CC(CCc1ccccc1)N(O)C=O)CC2 (centres unmarked) [Example 12]
2. O=CN(O)C(COCc1ccccc1)CS(=O)(=O)N1CCc2ccc(C(F)(F)F)cc2C1 (centres unmarked) [Example 59]
3. O=CN(O)C(CS(=O)(=O)N1CCc2ccc(F)cc2C1)C1CCN(Cc2ccccc2)CC1 (centres unmarked) [Example 53]
4. O=CN(O)C1(CS(=O)(=O)N2CCc3ccc(Cl)cc3C2)CCCC1 [Example 62]
5. O=CN(O)[C@@H](CS(=O)(=O)N1CCc2ccc(C(F)(F)F)cc2C1)[C@H]1CCCO1 [Example 32]
Rank ascending by inhibition at 5 µM. Form field (ranking): labels in requested order.
1, 5, 3, 2, 4
(1: 0%, 5: 4%, 3: 16%, 2: 35%, 4: 52%)

I. CC(C)(CS(=O)(=O)N1CCc2ccc(Br)cc2C1)N(O)C=O [Example 56]
II. O=CN(O)C(CS(=O)(=O)N1CCc2ccc(F)cc2C1)c1ccoc1 (centres unmarked) [Example 52]
III. O=CN(O)[C@@H](CS(=O)(=O)N1CCc2ccc(Cl)cc2C1)[C@H]1CCCO1 [Example 22]
IV. O=CN(O)C(CS(=O)(=O)N1CCc2ccc(F)cc2C1)C1CCCC1 (centres unmarked) [Example 60]
V. O=CN(O)[C@H](CS(=O)(=O)N1CCc2ccc(Cl)cc2C1)[C@H]1CCCO1 [Example 23]
Sort (5 compounds) by inhibition at 5 µM: min first. Response format: the labels, sorted as the prompt asks.
III, IV, II, I, V

a. O=CN(O)C(CS(=O)(=O)N1CCc2ccc(Cl)cc2C1)C1CC1 (centres unmarked) [Example 73]
b. CC(C)(C)C(CS(=O)(=O)N1CCc2ccc(Cl)cc2C1)N(O)C=O (centres unmarked) [Example 65]
Param pair: a , b . Output: the one whose inhibition at 5 µM is numerically greater. Indicate which entry you chose by stating its label.
b

P. O=CN(O)C(CS(=O)(=O)N1CCc2ccc(-c3ccncc3)cc2C1)C1CCCC1 (centres unmarked) [Example 79]
Q. O=CN(O)C(CS(=O)(=O)N1CCc2cc(C(F)(F)F)ccc2C1)C1CCCC1 (centres unmarked) [Example 25]
# returns the entry with the larger inhibition at 5 µM; inputs P and Q Your choice should be expressed through its label.
Q

====

# TEST TARGET: UniProt P50281
# EXPERIMENT NOTES: MMP-14 enzyme inhibition assay (coumarin-labelled peptide substrate)
# Assay type: biochemical
# EXPERIMENTAL PARAMETERS: @ 5 μM; read-out: percentage inhibition MMP14
EXPERIMENTAL ENDPOINT: inhibition at 5 µM (%)

O=CN(O)C(CS(=O)(=O)N1CCc2ccc(C(F)(F)F)cc2C1)C1CCCC1 (centres unmarked) [Example 82]	20
O=CN(O)C(CO)CS(=O)(=O)N1CCc2cc(Cl)c(Cl)cc2C1 (centres unmarked) [Example 49]	86
CC(C)(C)OC(=O)N1CCC[C@@H]1[C@@H](CS(=O)(=O)N1CCc2cc(Cl)c(Cl)cc2C1)N(O)C=O (racemic) [Example 44]	83
CCC(CC)C(CS(=O)(=O)N1CCc2cc(C(F)(F)F)ccc2C1)N(O)C=O (centres unmarked) [Example 37]	83
CC(C)(C)C(CS(=O)(=O)N1CCc2ccc(Cl)cc2C1)N(O)C=O (centres unmarked) [Example 65]	50

a. CC(C)(C)CC(CS(=O)(=O)N1CCc2cc(Cl)c(Cl)cc2C1)N(O)C=O (centres unmarked) [Example 42]
b. CCC#CCC(C)(C)C(CS(=O)(=O)N1CCc2cc(C(F)(F)F)ccc2C1)N(O)C=O (centres unmarked) [Example 30]
From the items above, decide which of a and b has the lower inhibition at 5 µM reading. Write down the label of the entry you select.
b
